Target: ALPK1 (Homo sapiens (Human), UniProt Q96QP1)
Sequence (Q96QP1 whole entry): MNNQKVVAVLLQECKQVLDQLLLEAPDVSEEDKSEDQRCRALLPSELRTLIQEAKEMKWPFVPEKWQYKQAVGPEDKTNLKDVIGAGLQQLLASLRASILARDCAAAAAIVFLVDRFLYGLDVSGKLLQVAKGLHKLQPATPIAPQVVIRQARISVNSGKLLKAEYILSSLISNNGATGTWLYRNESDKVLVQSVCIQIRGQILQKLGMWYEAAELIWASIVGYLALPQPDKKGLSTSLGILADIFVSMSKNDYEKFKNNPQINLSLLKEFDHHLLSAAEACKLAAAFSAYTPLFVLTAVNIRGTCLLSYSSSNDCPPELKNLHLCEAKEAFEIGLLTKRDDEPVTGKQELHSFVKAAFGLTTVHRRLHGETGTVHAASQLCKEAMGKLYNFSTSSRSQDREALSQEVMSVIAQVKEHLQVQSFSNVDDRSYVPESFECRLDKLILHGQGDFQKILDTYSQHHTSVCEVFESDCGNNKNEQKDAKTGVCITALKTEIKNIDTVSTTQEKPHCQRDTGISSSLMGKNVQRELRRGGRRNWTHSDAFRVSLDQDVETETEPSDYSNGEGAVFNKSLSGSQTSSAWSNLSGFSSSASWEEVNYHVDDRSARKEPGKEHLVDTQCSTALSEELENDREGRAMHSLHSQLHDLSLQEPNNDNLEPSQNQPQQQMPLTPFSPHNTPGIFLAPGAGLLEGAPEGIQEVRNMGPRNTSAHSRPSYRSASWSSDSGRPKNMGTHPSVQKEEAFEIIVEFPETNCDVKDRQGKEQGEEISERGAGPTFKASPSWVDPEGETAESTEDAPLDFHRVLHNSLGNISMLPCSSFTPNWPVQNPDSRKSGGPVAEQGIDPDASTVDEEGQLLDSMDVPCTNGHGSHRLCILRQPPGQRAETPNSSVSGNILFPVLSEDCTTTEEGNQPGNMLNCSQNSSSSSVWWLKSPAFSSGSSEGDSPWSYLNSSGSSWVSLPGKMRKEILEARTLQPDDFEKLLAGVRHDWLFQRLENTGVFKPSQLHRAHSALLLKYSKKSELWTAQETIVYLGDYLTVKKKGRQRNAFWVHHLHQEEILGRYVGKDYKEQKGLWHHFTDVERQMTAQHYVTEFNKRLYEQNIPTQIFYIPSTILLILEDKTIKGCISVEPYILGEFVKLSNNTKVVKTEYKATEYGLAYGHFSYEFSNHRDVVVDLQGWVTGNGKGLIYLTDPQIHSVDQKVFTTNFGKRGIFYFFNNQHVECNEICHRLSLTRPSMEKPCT
Test: ALPK1 in vitro kinase assay (HTRF, TIFA phosphorylation)
Type: biochemical
Conditions: ADP-Heptose activated ALPK1
Some compounds, each annotated with its measured pIC50.
The scale used: pIC50 is minus the common logarithm of the concentration in molar units.

Some compounds with recorded pIC50:
COc1cccc2sc(NC(=O)c3c(F)cc(N4CCN(CCO)CC4)cc3F)nc12 ... 6.83
C#Cc1cccc2sc(NC(=O)c3c(F)cc(N4CC[C@@H](N)C4)cc3F)nc12 ... 7.08
COc1cccc2c(C)cc(NC(=O)c3c(F)cc(N4CCNCC4)cc3F)nc12 ... 6.83
C#Cc1cccc2sc(NC(=O)c3c(F)cc(N4CCN(C(N)=O)CC4)cc3F)nc12 ... 6.90
COc1cccc2sc(NC(=O)c3c(F)cc(N4CCC(N)C4)cc3F)nc12 (stereo not drawn) ... 6.90

For the next question, use this compound.
Item: COc1cccc2ccc(NC(=O)c3c(F)cc(N4CCN(C)CC4)cc3F)nc12 | pIC50: 6.80
